Target: c-Met kinase domain (GST-cMet) (Homo sapiens, UniProt P08581)
Sequence (P08581 1058-1365): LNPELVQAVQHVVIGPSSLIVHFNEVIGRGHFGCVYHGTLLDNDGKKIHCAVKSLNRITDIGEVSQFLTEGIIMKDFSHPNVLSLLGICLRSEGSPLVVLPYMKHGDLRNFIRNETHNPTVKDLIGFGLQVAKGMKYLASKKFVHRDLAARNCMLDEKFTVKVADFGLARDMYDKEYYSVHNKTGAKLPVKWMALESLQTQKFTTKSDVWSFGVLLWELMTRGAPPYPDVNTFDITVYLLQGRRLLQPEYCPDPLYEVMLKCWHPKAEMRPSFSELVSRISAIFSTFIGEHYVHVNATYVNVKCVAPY
outcome measure: pKi
# reply with the number alone; pKi is -log10 of concentration in mol/L

For c-Met kinase domain (GST-cMet) (Homo sapiens, UniProt P08581), provide pKi of Fc1cc(-c2ccccc2)cn2c(Cc3ccc4ncccc4c3)nnc12 [Example 437] please.
7.44

* * *

outcome measure: IC50

For c-Met kinase domain (GST-cMet) (Homo sapiens), provide IC50 of `COc1cnc2c(NCc3nnc4ccc(-c5cc(CO)no5)nn34)ccnc2c1` please.
< 500 nM

For c-Met kinase domain (GST-cMet) (Homo sapiens), provide IC50 of `COc1cnc2c(NCc3nnc4ccc(-c5cc(C(=O)O)no5)nn34)ccnc2c1` please.
< 500 nM

For c-Met kinase domain (GST-cMet) (Homo sapiens), provide IC50 of `CNC(=O)c1ccc(-c2ccc3nnc(COc4ccnc5cc(OC)ccc45)n3n2)s1` please.
< 500 nM
